Tested on: NCI/ADR-RES ovarian
test: NCI-60 one-dose screen, 48 h (100 = growth as untreated, 0 = no growth, -100 = all killed)
measurement.context: 10 µM unless noted
Protocol: Growth inhibition of the NCI/ADR-RES human […] tumor cell line is measured as a screen for anti-cancer activity. Cells are grown in 96 well plates and exposed to the test compound for 48 hours. Compounds are tested at a single concentration, which is 10^-5 M for most compounds. The reported endpoint is percent growth (GI% or GIPRCNT), where numbers from 0 - 100% represent growth inhibition, and numbers from -100% - 0 represent cell death. For example, a value of 40 represents 60% growth inhibition. […]
About 83,000 compounds went through this panel and 20% of them were active in at least one assay; those are over-represented in the sample as a whole.
endpoint: growth (%)
Write the number in % without appending the unit.

compound=CC(C)CCOc1ccc(-c2n[nH]c(C(F)(F)F)c2-c2cncc(C#N)c2)c(O)c1 obs_value=2.45
compound=O=C1C(=O)c2c(ccc3ccccc23)-c2ccccc21 obs_value=-1.89

Task item: Given the compound OC(CNC1CCCCC1)Cn1c2ccc(I)cc2c2cc(I)ccc21 (stereo not drawn) , write its reported growth.
Reply: 62.8

* * *

Tested on: LOX IMVI melanoma
test: NCI-60 one-dose screen, 48 h (100 = growth as untreated, 0 = no growth, -100 = all killed)
measurement.context: 10 µM unless noted
The panel holds about 83,000 compounds, 20% with a hit somewhere; the sample as a whole holds those more often.
endpoint: growth (%)
Write the number in % without appending the unit.

Task item: Given the molecule COc1ccc(CCN2C(=O)/C(=C/c3ccc(C4Oc5ccccc5C5CC(c6cccc(OC)c6)=NN54)cc3)SC2=S)cc1 (stereo not given) , write its reported growth.
Reply: 96.4

Task item: Given the molecule CCCCC(O)(c1ccc(Cl)cc1)C(CN1CCOCC1)c1ccc(Cl)cc1 (stereo not given) , write its reported growth.
Reply: 33.9

Task item: Given the molecule `COc1ccc(-c2cc(=O)c3c(OC)c4ccoc4c(/C=C/C=O)c3o2)cc1` , write its reported growth.
Reply: -11.8

Task item: Given the molecule `Cc1nc2ccccc2c(/C=C/c2ccccc2)c1C(=O)/C=C/c1ccc(Cl)cc1` , write its reported growth.
Reply: -90.3

Task item: Given the molecule CSc1nc2c(c(=O)[nH]1)N=C1c3ccccc3C(=O)C1C(c1ccc(F)cc1)N2 (stereo not given) , write its reported growth.
Reply: 62

* * *

System: OVCAR-4 ovarian
test: NCI-60 one-dose screen, 48 h (100 = growth as untreated, 0 = no growth, -100 = all killed)
measurement.context: 10 µM unless noted
Compounds without any hit were thinned out: in the full panel of roughly 83,000, 20% have a hit.
endpoint: growth (%)
Write the number in % without appending the unit.

Take a look at these entries with their results.
molecule=O=C(/C=C/c1ccc(F)cc1)c1ccc(Nc2nc(NCCO)nc(Nc3ccc(Cl)cc3)n2)cc1 assay_target="OVCAR-4 ovarian" endpoint=growth obs_value=78.6
molecule="COc1ccc(C2C3=C(COC3=O)N(CCO)c3cc4c(cc32)CCC4)cc1OC (centres undefined)" assay_target="OVCAR-4 ovarian" endpoint=growth obs_value=28.3
molecule="CCN1C(=O)N(CC)C2C1NC(=S)N2/N=C/C=C/c1ccccc1OC (centres undefined)" assay_target="OVCAR-4 ovarian" endpoint=growth obs_value=53.5

// next item, growth requested
Task item: Retrieve growth on OVCAR-4 ovarian; query `Cn1c(C(=O)c2cccc3ccccc23)nc2ccccc21`
Reply: 19.9

Origin of the recorded values: PubChem BioAssay (NCI)
